The values you see were collected from PubChem BioAssay (NCI).

Tested on: HCT-116 colon
ASSAY SUMMARY: NCI-60 one-dose screen, 48 h (100 = growth as untreated, 0 = no growth, -100 = all killed)
CONDITION CONTEXT: 10 µM unless noted
Compounds without any hit were thinned out: in the full panel of roughly 83,000, 20% have a hit.
The entries below are paired with their reported growth.
READOUT: growth (%)

COMPOUND: O=C1C=CC(=O)N1c1ccc2c(c1)Cc1cc(F)ccc1-2
READOUT: growth
OBSERVED: 94.3
--
COMPOUND: O=c1c(F)cn(Cc2ccccc2CCl)c(=O)n1Cc1ccccc1CCl
READOUT: growth
OBSERVED: -56.9
--
COMPOUND: N=C(N)c1ccc(-c2ccc(-c3ccc4ccccc4c3)s2)s1
READOUT: growth
OBSERVED: -70.5
--
COMPOUND: CCCCN1CCCn2c1nc1c2c(=O)n(CCC)c(=O)n1CCC
READOUT: growth
OBSERVED: 98.3
--
COMPOUND: O=C(N/N=C/c1c[nH]c2ccccc12)c1cc(-c2ccccc2)on1
READOUT: growth
OBSERVED: 90.6
--
COMPOUND: COc1ccc(S(=O)(=O)N2CC3(COC3)C2)cc1NC(=O)c1[nH]c(C)c2c1CCCCC2=O
READOUT: growth
OBSERVED: 51.7
--
COMPOUND: COc1cc2nc(N3CCCC3)nc(NCCc3ccccc3)c2cc1OC
READOUT: growth
OBSERVED: 2.87
--
COMPOUND: O=c1nc2oc3ccc4ccccc4c3cc-2s1
READOUT: growth
OBSERVED: 21.1
--
COMPOUND: CCN1CCN(c2nc(NCCNc3ccnc4cc(Cl)ccc34)c3ccccc3n2)CC1
READOUT: growth
OBSERVED: 1.44
--
COMPOUND: Nc1n[nH]c2ccc([C@@H]3Nc4ccc5[nH]ncc5c4[C@H]4C5C=CC(C5)[C@@H]34)cc12 (stereo not given in full)
READOUT: growth
OBSERVED: 6.63

* * *

Test system: NCI-H226 lung
ASSAY SUMMARY: NCI-60 one-dose screen, 48 h
CONDITION CONTEXT: 10 µM unless noted
Procedure: Growth inhibition of the NCI-H226 human Non-Small Cell Lung tumor cell line is measured as a screen for anti-cancer activity. Cells are grown in 96 well plates and exposed to the test compound for 48 hours. Compounds are tested at a single concentration, which is 10^-5 M for most compounds. The reported endpoint is percent growth (GI% or GIPRCNT), where numbers from 0 - 100% represent growth inhibition, and numbers from -100% - 0 represent cell death. […]
The panel holds about 83,000 compounds, 20% with a hit somewhere; the sample as a whole holds those more often. Calls of active or inactive are those of the source. How the source made its calls: active means growth percent below 10; inactive means the rest.
Possible outcomes: active, inactive

COMPOUND: CCOC(=O)c1c(C(=O)OCC)c2cc(-c3ccn4c(C(=O)c5ccccc5)c(C(=O)OCC)c(C(=O)OCC)c4c3)ccn2c1C(=O)c1ccccc1
CLASS NAME: inactive
--
COMPOUND: Cc1ccc(-c2onc3c(=O)[nH]nc(-c4ccccc4)c23)cc1
CLASS NAME: inactive
--
COMPOUND: O=C(O)c1ccc(NC(=O)c2ccc(-c3cccc([N+](=O)[O-])c3)o2)cc1
CLASS NAME: inactive
--
COMPOUND: Cc1cc(N2CCCC2)nc(NC2CCCC(Nc3ccnc4cc(Cl)ccc34)C2)n1 (centres undefined)
CLASS NAME: active
--
COMPOUND: O=C1c2cc3c(cc2-c2c1c1ccc(F)cc1c(=O)n2C[C@H](O)[C@@H](O)[C@H](O)CO)OCO3
CLASS NAME: active
--
COMPOUND: NC(=NCCCOc1ccc(Cl)cc1)Nc1ccc(C(F)(F)F)cc1
CLASS NAME: inactive
--
COMPOUND: CN(C)c1ccc(N=Nc2ccccn2)c(O)c1
CLASS NAME: inactive
--
COMPOUND: COc1ccc(NC2=C(Sc3nc(C)cc(C)n3)C(=O)N(Cc3ccccc3)C2=O)cc1Cl
CLASS NAME: inactive
--
COMPOUND: CCOc1cc2ncc(C#N)c(Nc3ccc(OCc4cccc(F)c4)c(Cl)c3)c2cc1NC(=O)CCCCC1CCSS1 (centres undefined)
CLASS NAME: inactive

* * *

System: NCI/ADR-RES ovarian
ASSAY SUMMARY: NCI-60 one-dose screen, 48 h (100 = growth as untreated, 0 = no growth, -100 = all killed)
CONDITION CONTEXT: 10 µM unless noted
About 83,000 compounds went through this panel and 20% of them were active in at least one assay; those are over-represented in the sample as a whole.

COMPOUND: CN1CCN(CCCOc2cccc3nc(Nc4cc(Cl)cc(Cl)c4)ccc23)CC1
TESTED ON: NCI/ADR-RES ovarian
growth / %: 6.46
//
COMPOUND: Cc1nn(-c2ccc(F)cc2)c2ncnc(Nc3ccc(NC(=O)Nc4ccc(Cl)c(C(F)(F)F)c4)cc3)c12
TESTED ON: NCI/ADR-RES ovarian
growth / %: 38.2
//
COMPOUND: CN(C)CCN1C(=O)c2cccc3c(N)ccc(c23)C1=O
TESTED ON: NCI/ADR-RES ovarian
growth / %: 40
//
COMPOUND: O=C1Nc2ccc(Br)cc2C12Oc1ccccc1C1CC(c3ccc(F)cc3)=NN12 (stereo unspecified)
TESTED ON: NCI/ADR-RES ovarian
growth / %: 97.3
//
COMPOUND: Clc1ccc2c(NCCNc3nc(N4CCOCC4)nc4ccccc34)ccnc2c1
TESTED ON: NCI/ADR-RES ovarian
growth / %: 47.9
//
COMPOUND: COc1ccc(-n2nc(C)c3c(Nc4ccc(NC(=O)Nc5cccc(C(F)(F)F)c5)cc4)ncnc32)cc1
TESTED ON: NCI/ADR-RES ovarian
growth / %: 4.85
//
COMPOUND: COc1ccc(C(=O)COc2ccc(/C=C3\Oc4ccc(OC)cc4C3=O)cc2)cc1
TESTED ON: NCI/ADR-RES ovarian
growth / %: 109
//
COMPOUND: Nc1n[nH]c2ccc([C@@H]3Nc4ccc5[nH]ncc5c4[C@H]4C5C=CC(C5)[C@@H]34)cc12 (stereo partly specified)
TESTED ON: NCI/ADR-RES ovarian
growth / %: -27.5
//
COMPOUND: CC1C(/C=N/Nc2ccccc2)C(C#N)(C#N)C1(C#N)C#N (stereo unspecified)
TESTED ON: NCI/ADR-RES ovarian
growth / %: 65.1
//
COMPOUND: CSc1nc(NCCO)c(C#N)c(-c2cccc([N+](=O)[O-])c2)n1
TESTED ON: NCI/ADR-RES ovarian
growth / %: 98.1
//
COMPOUND: Nc1nc2ncc(CCNc3ccc(C(=O)O)cc3)nc2c(=O)[nH]1
TESTED ON: NCI/ADR-RES ovarian
growth / %: 115
//
COMPOUND: O=C1Nc2cc(-c3ccc(O)cc3)ccc2/C1=C/c1ccc[nH]1
TESTED ON: NCI/ADR-RES ovarian
growth / %: -1.85
//
COMPOUND: NCCNc1nc(Nc2ccc(-c3nc4ccccc4[nH]3)cc2)c2cn[nH]c2n1
TESTED ON: NCI/ADR-RES ovarian
growth / %: 94.9
//
COMPOUND: N#CN1CC[C@H](C(=O)Nc2cc3cc(C(N)=O)ccc3cn2)C1
TESTED ON: NCI/ADR-RES ovarian
growth / %: 1.36
//
COMPOUND: O=C1C=C(O)C(=O)C(CC2=C(O)C(=O)C=C(O)C2=O)=C1O
TESTED ON: NCI/ADR-RES ovarian
growth / %: 99.6
//
COMPOUND: COc1cc2nc(N3CCCC3)nc(Nc3ccccc3)c2cc1OC
TESTED ON: NCI/ADR-RES ovarian
growth / %: 18.4
//
COMPOUND: COc1ccc(CN2c3ccccc3Oc3ccccc32)cc1F
TESTED ON: NCI/ADR-RES ovarian
growth / %: 41.5
//
COMPOUND: COc1cc2c(cc1-c1c(C)noc1C)ncc1nc(-c3ccccn3)n([C@H](C)COC(F)F)c12
TESTED ON: NCI/ADR-RES ovarian
growth / %: 33.6
//
COMPOUND: CCOC(=O)c1c(CN2CCN(C)CC2)nc2ccc(Cl)cc2c1-c1ccccc1
TESTED ON: NCI/ADR-RES ovarian
growth / %: 68.7
//
COMPOUND: CSc1ccc(SC2c3ccc(C)cc3Oc3nc(N)c(C#N)c(N)c32)cc1 (stereo unspecified)
TESTED ON: NCI/ADR-RES ovarian
growth / %: -18.6
//
COMPOUND: COc1ccc2c(c1)CC/C(=C\c1cncc(Br)c1)C2=O
TESTED ON: NCI/ADR-RES ovarian
growth / %: 83.1

* * *

Test system: MCF7 breast
ASSAY SUMMARY: NCI-60 one-dose screen, 48 h (100 = growth as untreated, 0 = no growth, -100 = all killed)
CONDITION CONTEXT: 10 µM unless noted
Compounds without any hit were thinned out: in the full panel of roughly 83,000, 20% have a hit.
Mark y only when growth stays strictly below 20%. Values equal to the cut-off are n.

COMPOUND: CCN(CC)c1ccc2c(c1)Oc1nc(N)c(C#N)c(N)c1C2Sc1ccc(SC)cc1 (stereo not given)
CLASS NAME: y
//
COMPOUND: Nc1ccc(S(=O)(=O)O)c2ccc(N=Nc3ccc(N=Nc4ccc(S(=O)(=O)O)cc4)c4ccccc34)c(O)c12
CLASS NAME: n
//
COMPOUND: O=C1C=C(O)C(=O)C(CC2=C(O)C(=O)C=C(O)C2=O)=C1O
CLASS NAME: n
//
COMPOUND: OC(c1cc2cc(Cl)c(Cl)cc2c2cc(C(F)(F)F)ccc12)C1CCCCN1 (stereo not given)
CLASS NAME: y
